Just for reference, ChEMBL document CHEMBL3994641 is where these values come from.

assay: Drug metabolism assessed as compound decomposition in 0.1 M NaOH in MeOH at 0.5 mg after 14 hrs by 1H-NMR spectroscopy; assay type: physicochemical; settings: read-out: Drug metabolism

Compound	degraded at 14 h / %
CC(=CC(/C)=C/C=C/C(C)=C/[C@H](O)[C@@H](O)C[C@H](C)O)/C=C/C(=O)O[C@H]1CCCC(=O)O[C@@H]([C@@H](C)C/C(C)=C/[C@@H](C)[C@H](O)C[C@@H](C)O)C/C=C(\C)C[C@@H]1C (mixture of isomers)	90

----------
assay: Drug metabolism assessed as compound decomposition in neat at room temperature up to 10 days; format: physicochemical; details: read-out: Drug metabolism
Reported Endpoint: degraded at 240 h

Compound	Reported Endpoint	Result
CC(=CC(/C)=C/C=C/C(C)=C/[C@H](O)[C@@H](O)C[C@H](C)O)/C=C/C(=O)O[C@H]1CCCC(=O)O[C@@H]([C@@H](C)C/C(C)=C/[C@@H](C)[C@H](O)C[C@@H](C)O)C/C=C(\C)C[C@@H]1C (mixture of isomers)	degraded at 240 h	20 to 30%

----------
test: Drug metabolism assessed as compound decomposition in 0.1 M HCl in MeOH at 0.5 mg after 8 hrs by 1H-NMR spectroscopy; assay type: physicochemical; details: read-out: Drug metabolism

Compound	Unit	degraded at 8 h
CC(=CC(/C)=C/C=C/C(C)=C/[C@H](O)[C@@H](O)C[C@H](C)O)/C=C/C(=O)O[C@H]1CCCC(=O)O[C@@H]([C@@H](C)C/C(C)=C/[C@@H](C)[C@H](O)C[C@@H](C)O)C/C=C(\C)C[C@@H]1C (mixture of isomers)	%	80

----------
test: Drug metabolism assessed as compound decomposition in DMSO/EtOH at -20 degreeC after 3 years; type: physicochemical; conditions: read-out: Drug metabolism

Compound	degraded at 26298 h (%)
CC(=CC(/C)=C/C=C/C(C)=C/[C@H](O)[C@@H](O)C[C@H](C)O)/C=C/C(=O)O[C@H]1CCCC(=O)O[C@@H]([C@@H](C)C/C(C)=C/[C@@H](C)[C@H](O)C[C@@H](C)O)C/C=C(\C)C[C@@H]1C (mixture of isomers)	20
